Where these numbers come from: patent US9115093B2

target: neutrophil elastase (Homo sapiens, UniProt P08246); test: Neutrophil elastase inhibitory activity in human plasma; format: biochemical; design: The stimulated blood is centrifuged to generate the neutrophil elastase enriched plasma; from tissue; host or cells: plasma from zymosan-stimulated citrated whole blood of healthy human donors; details: neutrophil elastase enriched human plasma (zymosan-stimulated blood), substrate MeOSuc-Ala-Ala-Pro-Val-AMC
Sequence (P08246 30-247 limits assumed): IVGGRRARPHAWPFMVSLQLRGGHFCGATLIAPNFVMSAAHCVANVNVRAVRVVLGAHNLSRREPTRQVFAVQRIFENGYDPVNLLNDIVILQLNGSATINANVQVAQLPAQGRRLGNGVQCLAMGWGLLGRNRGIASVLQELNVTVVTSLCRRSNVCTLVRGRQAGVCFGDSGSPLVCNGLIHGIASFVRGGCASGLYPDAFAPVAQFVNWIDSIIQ
measure name: pEC50
One number for each entry, as −log10 of the molar value.

Below, 2 compounds whose answers are already recorded.
CS(=O)(=O)c1cc(C#N)ccc1[C@@H]1C2=C(CCCC2=O)N(c2cccc(C(F)(F)F)c2)C(=O)N1C(=O)NCC(F)F    9.00
CS(=O)(=O)c1cc(C#N)ccc1[C@@H]1C2=C(CCCC2=O)N(c2cccc(C(F)(F)F)c2)C(=O)N1S(C)(=O)=O    9.00

// switching to the query compound
Task: What does the record list as pEC50 for CC(C)NC(=O)N1C(=O)N(c2cccc(C(F)(F)F)c2)C2=C(C(=O)CCC2)[C@H]1c1ccc(C#N)cc1S(C)(=O)=O ?
Result: 9.00

====

For each of the compounds below, state its pIC50.
Biological target: neutrophil elastase (Homo sapiens, UniProt P08246)
Experiment: Human Neutrophil Elastase Assay
Conditions: substrate MeOSuc-Ala-Ala-Pro-Val-AMC, pH 7.5, room temperature
Experimental: Human Neutrophil Elastase Assay Materials: Human neutrophil elastase was purchased from Calbiochem (Cat.No.: 324681) and the elastase substrate MeOSuc-Ala-Ala-Pro-Val-AMC from Bachem (Cat.No.: I-1270). […] Assay conditions: Test compounds were prediluted in DMSO and subsequently in compound buffer (5% DMSO final). […] After inactivation of the enzyme, fluorescence intensities were measured at 380 nm excitation and 460 nm emission wavelengths. […]
Answers are plain numbers, as −log10 of the molar value.

Below, 3 compounds whose answers are already recorded.
N#Cc1ccc(C2C3=C(CCCC3=O)N(c3cccc(C(F)(F)F)c3)C(=O)N2CC(=O)NCCn2ccnc2)cc1 (stereo not shown)    8.23
N#Cc1ccc(C2NC(=O)N(c3ccnc(C(F)(F)F)c3)C3=C2C(=O)CCC3)cc1 (stereo not shown)    7.15
CNC(=O)N1C(=O)N(c2ccnc(C(F)(F)F)c2)C2=C(C(=O)CCC2)C1c1ccc(C#N)cc1 (stereo not shown)    8.36

# batch: return pIC50 for each of the 5 compounds below
1. CN(C)CCNC(=O)CN1C(=O)N(c2cccc(C(F)(F)F)c2)C2=C(C(=O)CCC2)C1c1ccc(C#N)cc1 (stereo not shown)
2. N#Cc1ccc(C2C3=C(CCCC3=O)N(c3cccc(C(F)(F)F)c3)C(=O)N2CC(N)=O)cc1 (stereo not shown)
3. CCS(=O)(=O)c1cc(C#N)ccc1C1NC(=O)N(c2cccc(C(F)(F)F)c2)C2=C1C(=O)CCC2 (stereo not shown)
4. CCCCN1C(=O)N(c2cccc(C(F)(F)F)c2)C2=C(C(=O)CCC2)C1c1ccc(C#N)cc1 (stereo not shown)
5. CN(C)C(=O)N1C(=O)N(c2cccc(C(F)(F)F)c2)C2=C(C(=O)CCC2)C1c1ccc(C#N)cc1 (stereo not shown)

Result:
1. 7.70
2. 8.02
3. 8.12
4. 7.71
5. 7.17

# batch: return pIC50 for each of the 8 compounds below
1. CN(CC1CC1)C(=O)CN1C(=O)N(c2cccc(C(F)(F)F)c2)C2=C(C(=O)CCC2)C1c1ccc(C#N)cc1 (stereo not shown)
2. CCNC(=O)N1C(=O)N(c2ccnc(C(F)(F)F)c2)C2=C(C(=O)CCC2)C1c1ccc(C#N)cc1 (stereo not shown)
3. CNC(=O)CN1C(=O)N(c2cccc(C(F)(F)F)c2)C2=C(C(=O)CCC2)C1c1ccc(C#N)cc1 (stereo not shown)
4. N#Cc1ccc(C2C3=C(CCCC3=O)N(c3cccc(C(F)(F)F)c3)C(=O)N2C(=O)NCC2(O)CCC2)cc1 (stereo not shown)
5. CCN1C(=O)N(c2cccc(C(F)(F)F)c2)C2=C(C(=O)CCC2)C1c1ccc(C#N)cc1S(C)(=O)=O (stereo not shown)
6. COC1CCN(C(=O)CN2C(=O)N(c3cccc(C(F)(F)F)c3)C3=C(C(=O)CCC3)C2c2ccc(C#N)cc2)C1 (stereo not shown)
7. N#Cc1ccc(C2C3=C(CCCC3=O)N(c3cccc(C(F)(F)F)c3)C(=O)N2CC(=O)NCc2ccco2)cc1 (stereo not shown)
8. N#Cc1ccc(C2C3=C(CCCC3=O)N(c3cccc(C(F)(F)F)c3)C(=O)N2CC(=O)N2CCN(C3CC3)CC2)cc1 (stereo not shown)

Result:
1: 8.47; 2: 8.92; 3: 8.19; 4: 8.68; 5: 8.89; 6: 8.68; 7: 7.76; 8: 7.67

# batch: return pIC50 for each of the 4 compounds below
1. N#Cc1ccc(C2C3=C(CCCC3=O)N(c3cccc(C(F)(F)F)c3)C(=O)N2CC(=O)N2Cc3ccccc3C2)cc1 (stereo not shown)
2. N#Cc1ccc(C2C3=C(CCCC3=O)N(c3ccnc(C(F)(F)F)c3)C(=O)N2C(=O)NC2CC2)cc1 (stereo not shown)
3. N#Cc1ccc(C2C3=C(CCCC3=O)N(c3cccc(C(F)(F)F)c3)C(=O)N2C(N)=O)cc1 (stereo not shown)
4. COCCNC(=O)N1C(=O)N(c2cccc(C(F)(F)F)c2)C2=C(C(=O)CCC2)C1c1ccc(C#N)cc1 (stereo not shown)

Result:
8.03
8.77
8.22
9.00
